# SYSTEM_TESTED: HuCD100-His (human, UniProt Q92854 22-734)
# TEST: cell-based or functional assay
Under this convention, met denotes MDSC proportion (%) at 8.463 nM antibody strictly below 20% and not met denotes MDSC proportion (%) at 8.463 nM antibody at or above 20%.

BINDER: A9-VHH3 (antibody, human IgG4 S228P, V domains shown) VH: QVQLVESGGGLVQAGGSLRLSCAASGFSLDYYAIGWFRQAPGKGLEEVSCISSSGGSTDYADSVKGRFTISRAYAKVYLQMNSLRAEDTAVYYCAAGVSGSVCPPLIGAYWGQGTLVTVSS
ASSIGNED_LABEL: not met
--
BINDER: A9-VHH1 (antibody, human IgG4 S228P, V domains shown) VH: QVQLVESGGGLVQPGGSLRLSCAASGFSLDYYAIGWFRQAPGKEREEVSCISSSGGSTDYADSVKGRFTISRAYAKVYLQMNSLKPEDTAVYYCAAGVSGSVCPPLIGAYWGQGTLVTVSS
ASSIGNED_LABEL: not met
--
BINDER: A31-VHH1 (antibody, human IgG4 S228P, V domains shown, also called humanized antibody A31-VHH1) VH: EVQLVESGGGLVQPEGSLRLSCAASGFPLDYYAIGWFRQAPGKEREGVSCIISGGSTKYSASVKGRFTISRDSAKNTVYLQMNSLRAEDTAVYFCAVSWSCDLFPRDTYGWDAWGQGTLVTVSS
ASSIGNED_LABEL: met
--
BINDER: A9-VHH2 (antibody, human IgG4 S228P, V domains shown) VH: QVQLVESGGGLVQAGGSLRLSCAASGFSLDYYAIGWFRQAPGKEREEVSCISSSGGSTDYADSVKGRFTISRAYAKVYLQMNSLRAEDTAVYYCAAGVSGSVCPPLIGAYWGQGTLVTVSS
ASSIGNED_LABEL: met
--
BINDER: A31 (antibody, human IgG4 S228P, V domains shown, also called antibody A31; antibody molecule A31) VH: EVQLVESGGGLVQPEGSLRLSCAASGFPLDYYAIGWFRQAPGKEREGVSCIISGGSTKYSASVKGRFTISRDSANNTVYLQMNSLKPEDTAVYFCAVSWSCDLFPRDTYGWDAWGQGTLVTVSS
ASSIGNED_LABEL: met
--
BINDER: A9 (antibody, human IgG4 S228P, V domains shown, also called antibody A9; antibody molecule A9) VH: QVQLVESGGGLVQAGGSLRLSCAASGFSLDYYAIGWFRQAPGKEREEVSCISSSGGSTDYADSVKGRFTISRAYAKVYLQMNSLKPEDTAVYYCAAGVSGSVCPPLIGAYWGQGTQVTVSS
ASSIGNED_LABEL: not met
